# measured-on: Glucocorticoid receptor (Homo sapiens)
# Sequence (whole entry): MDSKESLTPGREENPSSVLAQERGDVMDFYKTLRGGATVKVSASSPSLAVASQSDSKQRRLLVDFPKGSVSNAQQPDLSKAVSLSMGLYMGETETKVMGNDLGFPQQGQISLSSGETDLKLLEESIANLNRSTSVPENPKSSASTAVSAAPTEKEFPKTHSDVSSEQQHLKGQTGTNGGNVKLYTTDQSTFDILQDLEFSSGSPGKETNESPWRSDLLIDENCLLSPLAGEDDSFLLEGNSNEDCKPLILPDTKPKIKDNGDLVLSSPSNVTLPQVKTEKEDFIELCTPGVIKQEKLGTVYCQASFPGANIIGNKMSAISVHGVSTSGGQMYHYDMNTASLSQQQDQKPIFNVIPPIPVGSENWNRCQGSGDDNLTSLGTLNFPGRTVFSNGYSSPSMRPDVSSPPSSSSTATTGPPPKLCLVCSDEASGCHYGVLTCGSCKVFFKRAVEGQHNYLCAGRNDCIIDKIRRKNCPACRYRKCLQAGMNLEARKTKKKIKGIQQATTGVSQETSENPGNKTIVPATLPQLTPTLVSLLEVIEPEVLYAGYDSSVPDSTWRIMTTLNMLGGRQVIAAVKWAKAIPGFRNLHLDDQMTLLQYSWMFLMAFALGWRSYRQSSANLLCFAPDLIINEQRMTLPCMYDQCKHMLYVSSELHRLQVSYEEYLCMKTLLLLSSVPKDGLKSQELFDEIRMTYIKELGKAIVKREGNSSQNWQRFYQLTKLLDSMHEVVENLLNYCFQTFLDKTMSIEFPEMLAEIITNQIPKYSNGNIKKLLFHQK
# assay-summary: Transactivation activity at glucocorticoid receptor ligand binding domain (unknown origin) expressed in human Hela cells co-expressing GAL4 DNA binding domain assessed as NP-1-stimulated GRE activation by luciferase reporter gene assay relative to dexamethasone
# Assay type: cell-based

compound	Efficacy, %
CC(C)(CNS(C)(=O)=O)[C@@H](c1ccccc1)c1ccc2c(cnn2-c2ccc(F)cc2)c1	32
CC(C)C[C@@H](c1ccc2c(cnn2-c2ccc(F)cc2)c1)C(C)(C)CNC(=O)NCC(F)(F)F	58
CCS(=O)(=O)NCC(C)(C)[C@@H](c1ccccc1)c1ccc2c(cnn2-c2ccc(F)cc2)c1	19
CC(C)(C)C(=O)NCC(C)(C)[C@@H](c1ccccc1)c1ccc2c(cnn2-c2ccc(F)cc2)c1	25
CC(C)(CNS(=O)(=O)C1CC1)[C@@H](c1ccccc1)c1ccc2c(cnn2-c2ccc(F)cc2)c1	19
CC(C)C[C@@H](c1ccc2c(cnn2-c2ccc(F)cc2)c1)C(C)(C)CNC(=O)CC(F)(F)F	81
CC(CNS(C)(=O)=O)[C@@H](c1ccccc1)c1ccc2c(cnn2-c2ccc(F)cc2)c1 (stereo partly drawn)	101
CC(C)(C)NC(=O)NCC(C)(C)[C@@H](c1ccccc1)c1ccc2c(cnn2-c2ccc(F)cc2)c1	12
